measurement-protocol: Plasma levels, spinal nerve injury (rhizotomy) model
Assay type: in vivo, female mouse
test-context: plasma, ip; spinal nerve injury female mouse, 0.25 mg/kg i.p.; 30 min post-administration; data obtained in a separate study
measured-property: concentration at 30 min

Looking up O=C(OCCN1CCOCC1)C1(c2ccccc2)CCCCC1 [PRE-084, reference compound] , I found its concentration at 30 min recorded as 3.6 ng/mL

###

measurement-protocol: Plasma levels, SOD1G93A model
Format: in vivo, Transgenic SOD1^G93A male mouse
test-context: SOD1G93A transgenic, plasma, ip; SOD1G93A male mouse, 5 mg/kg i.p., after 8 weeks of administration; read-out: Plasma Concentration 15 min Post-Administration, Mean
measured-property: concentration at 15 min (ng/mL)
One number for each entry, in ng/mL.

Looking up C[C@@H]1OC2(CCN(Cc3ccc(F)cc3)CC2)CN(C)C1=O , I found its concentration at 15 min recorded as 425
